Origin of the recorded values: patent US20030232822A1

Target: 5-HT2A receptors (Rattus norvegicus, UniProt P14842)
Construct: membranes from rat brain (cortex) in vitro; from tissue; host or cells: rat brain cortex membranes
Sequence (P14842 whole entry): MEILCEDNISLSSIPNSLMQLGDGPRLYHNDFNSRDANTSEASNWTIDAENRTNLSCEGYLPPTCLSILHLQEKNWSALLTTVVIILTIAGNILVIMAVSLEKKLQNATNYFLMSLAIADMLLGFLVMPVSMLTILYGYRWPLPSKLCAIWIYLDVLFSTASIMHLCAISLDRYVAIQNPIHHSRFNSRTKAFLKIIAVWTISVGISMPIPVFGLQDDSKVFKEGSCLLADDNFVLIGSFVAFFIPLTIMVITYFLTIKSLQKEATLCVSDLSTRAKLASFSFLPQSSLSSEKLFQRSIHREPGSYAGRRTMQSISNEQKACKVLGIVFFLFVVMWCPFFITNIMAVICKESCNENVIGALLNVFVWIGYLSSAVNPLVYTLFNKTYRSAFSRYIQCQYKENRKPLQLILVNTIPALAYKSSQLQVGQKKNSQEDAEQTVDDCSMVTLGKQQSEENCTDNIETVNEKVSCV
Assay: Inhibition of the binding of [3H]Ketanserin to 5-HT2A receptors
Conditions: [3H]Ketanserin 0.50 nM, membranes from rat brain (cortex); read-out: 5-HT2A-binding (IC50)
TEST_READOUT: IC50 (nM)
Express your answer in nM, writing the number without its unit.

IN: Form field: reported IC50 of O=C1CCc2ccccc2N1CCN1CCN(c2ccc3[nH]ccc3c2)CC1
OUT: 29

IN: Form field: reported IC50 of O=C1c2ccccc2CCN1CCCN1CCN(c2ccc3[nH]ccc3c2)CC1
OUT: 90

IN: Form field: reported IC50 of O=C(CCCN1CCN(c2ccc3[nH]ccc3c2)CC1)N1CCc2ccccc2C1
OUT: 4
